tested on: 6C3HED lymphosarcoma (Gardner lymphosarcoma, GLS); experiment: Antitumor activity in C3H mice bearing 6C3HED lymphosarcoma allograft, oral administration; format: in vivo; settings: 6C3HED; 150 mg/kg; oral gavage daily for 8 days
MEASUREMENT TYPE: Toxic/Total (mice which died relative to total in group)

Ask: Fill in: Toxic/Total (mice which died relative to total in group) of CN(C)c1cccc(S(=O)(=O)NC(=O)Nc2ccc(Cl)cc2)c1 is ___
Result: 0/10

Ask: Query: Toxic/Total (mice which died relative to total in group); subject: CN(C)c1ccc(S(=O)(=O)NC(=O)Nc2ccc(Cl)cc2)cc1
Result: 0/10

Ask: Requested field: Toxic/Total (mice which died relative to total in group). Item: O=C(Nc1ccc(Cl)cc1)NS(=O)(=O)c1ccc(N2CCOCC2)cc1
Result: 0/10

Ask: May I ask what Toxic/Total (mice which died relative to total in group) has been recorded for CC(C)Nc1ccc(S(=O)(=O)NC(=O)Nc2ccc(Cl)c(Cl)c2)cc1 ?
Result: 0/10

Ask: What does the record list as Toxic/Total (mice which died relative to total in group) for O=C(Nc1ccc(Cl)cc1)NS(=O)(=O)c1ccc(N2CCCC2)cc1 ?
Result: 0/10

Ask: Query (compound): CCN(CC)c1ccc(S(=O)(=O)NC(=O)Nc2ccc(Cl)c(Cl)c2)cc1 ; field requested: Toxic/Total (mice which died relative to total in group)
Result: 0/10
